- Tested on: foxtail, giant (giant foxtail, Setaria faberii)
- assay_procedure: Test C greenhouse herbicide test, pre- and postemergence
- Type: in vivo
- protocol_conditions: postemergence, 62 g ai/ha; scale 0 to 100, 0 no effect, 100 complete control
Exercise: for every item that follows, state its recorded Foxtail, Giant plant response rating.
Provide a numeric answer; units are not to be included.

Give Foxtail, Giant plant response rating only, for CCc1sc2ccc(C)cc2c1-c1c(O)c(C)nn(C)c1=O , using foxtail, giant (giant foxtail, Setaria faberii) data. 65

Give Foxtail, Giant plant response rating only, for Cc1ccc2ccccc2c1-c1c(O)c(Br)nn(C)c1=O , using foxtail, giant (giant foxtail, Setaria faberii) data. 65

Give Foxtail, Giant plant response rating only, for Cc1nn(C)c(=O)c(-c2ccc(Br)c3ccccc23)c1O , using foxtail, giant (giant foxtail, Setaria faberii) data. 5

Give Foxtail, Giant plant response rating only, for CC(=O)Oc1c(C)nn(C)c(=O)c1-c1c(C)cc(C)c2ccccc12 , using foxtail, giant (giant foxtail, Setaria faberii) data. 15

Give Foxtail, Giant plant response rating only, for Cc1ccc2ccccc2c1-c1c(OC(=O)OC(C)C)c(C)nn(C)c1=O , using foxtail, giant (giant foxtail, Setaria faberii) data. 70

Give Foxtail, Giant plant response rating only, for Cc1cc(C)c2sc(C)c(-c3c(O)c(C)nn(C)c3=O)c2c1 , using foxtail, giant (giant foxtail, Setaria faberii) data. 65

====

- System: kochia (Kochia scoparia)
- assay_procedure: Test D controlled growth environment herbicide test, pre- and postemergence
- Type: in vivo
- protocol_conditions: Preemergence, 250 g ai/ha; scale 0 to 100, 0 no effect, 100 complete control
metric: Plant response rating, Kochia

Consider the compound Cc1nn(C)c(=O)c(-c2c(C)sc3ccc(Br)cc23)c1O and give its recorded Plant response rating, Kochia. 75

Consider the compound Cc1ccc2ccccc2c1-c1c(OC(=O)OC(C)C)c(C)nn(C)c1=O and give its recorded Plant response rating, Kochia. 40

Consider the compound CC(=O)Oc1c(C)nn(C)c(=O)c1-c1c(C)sc2ccc(Cl)cc12 and give its recorded Plant response rating, Kochia. 100

Consider the compound Cc1cc(C)c2sc(C)c(-c3c(O)c(C)nn(C)c3=O)c2c1 and give its recorded Plant response rating, Kochia. 20

Consider the compound Cc1nn(C)c(=O)c(-c2cccc3ccc(Br)cc23)c1O and give its recorded Plant response rating, Kochia. 95

Consider the compound Cc1ccc2sc(Br)c(-c3c(O)c(C)nn(C)c3=O)c2c1 and give its recorded Plant response rating, Kochia. 95

====

- Test system: lambsquarters (Chenopodium album)
- assay_procedure: Test C greenhouse herbicide test, pre- and postemergence
- Assay type: in vivo
- protocol_conditions: postemergence, 62 g ai/ha; scale 0 to 100, 0 no effect, 100 complete control
metric: Lambsquarters plant response rating
Provide a numeric answer; units are not to be included.

Give Lambsquarters plant response rating only, for Cc1nn(C)c(=O)c(-c2ccc(Br)c3ccccc23)c1O , using lambsquarters (Chenopodium album) data. 100

Give Lambsquarters plant response rating only, for CCc1sc2ccc(C)cc2c1-c1c(O)c(C)nn(C)c1=O , using lambsquarters (Chenopodium album) data. 85

Give Lambsquarters plant response rating only, for CCc1oc2ccc(C)cc2c1-c1c(O)c(C)nn(C)c1=O , using lambsquarters (Chenopodium album) data. 80

Give Lambsquarters plant response rating only, for Cc1nn(C)c(=O)c(-c2c(C)sc3c(C)cc(Cl)cc23)c1O , using lambsquarters (Chenopodium album) data. 70

Give Lambsquarters plant response rating only, for CCc1ccc2ccccc2c1-c1c(O)c(C)nn(C)c1=O , using lambsquarters (Chenopodium album) data. 90

Give Lambsquarters plant response rating only, for COC(=O)Oc1c(C)nn(C)c(=O)c1-c1c(C)sc2ccc(C)cc12 , using lambsquarters (Chenopodium album) data. 95

Give Lambsquarters plant response rating only, for Cc1cc2ccccc2c(-c2c(O)c(C)nn(C)c2=O)c1C , using lambsquarters (Chenopodium album) data. 90

Give Lambsquarters plant response rating only, for Cc1nn(C)c(=O)c(-c2ccc(F)c3ccccc23)c1O , using lambsquarters (Chenopodium album) data. 95

Give Lambsquarters plant response rating only, for COC(=O)Oc1cnn(C)c(=O)c1-c1c(C)sc2ccccc12 , using lambsquarters (Chenopodium album) data. 20
